Assay: Stability of (Z)-Endoxifen in acetone (HPLC peak table over time)
Assay type: physicochemical
Conditions: acetone, 40° C., 4 hr
Result Type: E-form, RT 15.40, RRT 0.95
Write the figure, then the unit, nothing else.

Query: Fill blank: measured E-form, RT 15.40, RRT 0.95 of the compound CC/C(=C(\c1ccc(O)cc1)c1ccc(OCCNC)cc1)c1ccccc1 [(Z)-endoxifen] is ____.
Result: 0.78%

* * *

Assay: Solvent mixture solubility tests of (Z)-endoxifen
Format: physicochemical
Conditions: heptane/toluene 50/50 v/v, organic solvent or mixture, thermodynamic from solid, heptane/toluene 50/50 v/v; 40 mg/mL; high temperature; read-out: Solubility HT (40 mg/mL): Sol. HT
Experimental: To test the solubility of (Z)-endoxifen in varying conditions, 10 mg of (Z)-endoxifen was added to a stoppered tube, and 0.01 ml of the selected solvent was added (1000 mg/ml solution). The tube was shaken vigorously for 1 minute and then incubated at a constant temperature of 25.0° C. for 15 minutes. If the solid was not completed dissolved, the tube was shaken again and placed at the constant temperature of 25.0° C. for another 15 minutes. […]
Result Type: solubility

Query: Fill blank: measured solubility of the compound CC/C(=C(\c1ccc(O)cc1)c1ccc(OCCNC)cc1)c1ccccc1 [(Z)-endoxifen] is ____.
Result: < 40 mg/mL
